# Test system: biotinyl-Val-oxazolone
# METHOD_NOTES: self-aminoacylation, catalytic enhancement (BVO) (fold over background); higher = more active; k-Seq, kA / k0A0; sequences stand for … in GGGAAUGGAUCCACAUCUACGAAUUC…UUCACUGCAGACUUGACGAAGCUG
Fewer inactive variants are shown than the library holds.
READOUT_NAME: self-aminoacylation
Form: value (number only, do not type unit).

Example cases with answers are listed next.
CUACUUCAAACCAACGGUCUG [Fam1A.1 aminoacylation ribozyme variant]	1.02
UCACACUUCAACCAAUCGGUC [Fam1B.1 aminoacylation ribozyme variant]	1.75
AAGUUUGCUAAUAGUCCCAUG [Fam3.1 aminoacylation ribozyme variant]	1.13
CCACACUCCAAGCAAUCGGCC [Fam1B.1 aminoacylation ribozyme variant]	2.36
CCACAUUUCAAGCAAUCGGCC [Fam1B.1 aminoacylation ribozyme variant]	3.56
AAGUUUGCUAACAGUCUCAAG [Fam3.1 aminoacylation ribozyme variant]	0.694
CUACUUCAAACAAGCCGUCUG [Fam1A.1 aminoacylation ribozyme variant]	0.746

Attention now shifts to the item below.
input: Quick one: give measured self-aminoacylation for CCACACUUCAAGCAAUCGGUU [Fam1B.1 aminoacylation ribozyme variant]
output: 1.59

----------
Listing: self-aminoacylation of selected sequences
# Tested on: biotinyl-Phe-oxazolone
# METHOD_NOTES: self-aminoacylation, catalytic enhancement (BFO) (fold over background); higher = more active; k-Seq, kA / k0A0; sequences stand for … in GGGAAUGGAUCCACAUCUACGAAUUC…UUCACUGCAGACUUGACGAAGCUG
Fewer inactive variants are shown than the library holds.

input: Fetch value of self-aminoacylation on biotinyl-Phe-oxazolone for AAGUUUGCUAAUAGGCGCGAG [Fam3.1 aminoacylation ribozyme variant] .
output: 1.2

input: Fetch value of self-aminoacylation on biotinyl-Phe-oxazolone for ACUACCCUGGUCAUCGCGUGA [Fam2.1 aminoacylation ribozyme variant] .
output: 163

input: Fetch value of self-aminoacylation on biotinyl-Phe-oxazolone for AUUACCCUGGUCAUGGAGGGA [Fam2.1 aminoacylation ribozyme variant] .
output: 2.1

input: Fetch value of self-aminoacylation on biotinyl-Phe-oxazolone for AUUCACCUAGGUCAUUGGGUC [Fam2.2 aminoacylation ribozyme variant] .
output: 1.09

input: Fetch value of self-aminoacylation on biotinyl-Phe-oxazolone for AUACACCUAGGUCAUCGGGUG [Fam2.2 aminoacylation ribozyme variant] .
output: 19.8

input: Fetch value of self-aminoacylation on biotinyl-Phe-oxazolone for AUUCACCCAGGUCAUCGGCUG [Fam2.2 aminoacylation ribozyme variant] .
output: 6.8

input: Fetch value of self-aminoacylation on biotinyl-Phe-oxazolone for AAGUUUGGUAAUCGUCGCAAG [Fam3.1 aminoacylation ribozyme variant] .
output: 1.07

input: Fetch value of self-aminoacylation on biotinyl-Phe-oxazolone for CUACUUUAAUCAAUCGGUCUG [Fam1A.1 aminoacylation ribozyme variant] .
output: 1.43

input: Fetch value of self-aminoacylation on biotinyl-Phe-oxazolone for AAGUUUGCUAAAAGUUGCAAG [Fam3.1 aminoacylation ribozyme variant] .
output: 1.18

----------
# Test system: biotinyl-Ile-oxazolone
# METHOD_NOTES: self-aminoacylation, catalytic enhancement (BIO) (fold over background); higher = more active; k-Seq, kA / k0A0; sequences stand for … in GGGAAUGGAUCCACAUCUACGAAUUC…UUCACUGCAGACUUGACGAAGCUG
This sample holds only a part of the variants without activity.
Listing: self-aminoacylation of selected sequences
Form: value (number only, do not type unit).

Example cases with answers are listed next.
AAGGUUGCUAAUAGUGGCAAG [Fam3.1 aminoacylation ribozyme variant]	0.698
CCACACUUUGAGCAAUCGGUC [Fam1B.1 aminoacylation ribozyme variant]	1.05
CUUCUUCAAAAAAUCGGUCUG [Fam1A.1 aminoacylation ribozyme variant]	1

input: Quick one: give measured self-aminoacylation for AUUAACCCAGGUCAUCGGGUG [Fam2.2 aminoacylation ribozyme variant]
output: 4.38

All values here come from the supplement of paper PMC9233669.
